# Experimental Target: T1, hK1 (human tissue kallikrein 1), recombinant (human, UniProt P06870 25-262)
# T1 construct: Expressed in P. pastoris from KLK1 cDNA and purified; enzymatically active; also called KLK1; Recombinant (Pichia) Kallikrein
# Test Details: SPR
Quantity: koff (s⁻¹)
Numbers only, in s⁻¹.

Could I get koff for every one of these entries?
1. M0132-C01 (Fab, V domains shown) VH: EVQLLESGGGLVQPGGSLRLSCAASGFTFSRYLMWWVRQAPGKGLEWVSVIGPSGGWTRYADSVKGRFTISRDNSKNTLYLQMNSLRAEDTAVYYCARHPGDYWGQGTLVTVSS VL: AQSALTQPRSVSGSPGQSVTISCTGTGSNIDGYNYVSWYQQYPGNAPKLIIYDVGKRPSGVPNRFSGSKSGNTASLTISGLQAEDEADYYCCSYAGSYSYVFGVGTKVTVLG
2. M0122-A05 (Fab, V domains shown) VH: EVQLLESGGGLVQPGGSLRLSCAASGFTFSHYPMHWVRQAPGKGLEWVSSIWPSGGHTSYADSVKGRFTISRDNSKNTLYLQMNSLRAEDTATYYCARLSQPIWGQGTLVTVSS VL: DIQMTQSPSSFSASTGDRVTITCRASQSISRWLAWYQQKPGKAPKLLIYEASTLESGVPSTFSGSGSGTEFTLTISSLQPDDFATYYCQQYNSYPLTFGGGTKVEIKR
3. M0139-A09 (Fab, V domains shown) VH: EVQLLESGGGLVQPGGSLRLSCAASGFTFSWYFMVWVRQAPGKGLEWVSGIGPSGGLTTYADSVKGRFTISRDNSKNTLYLQMNSLRAEDTAVYYCARSDWLNYWGQGTLVTVSS VL: DIVMTQTPPSLPVNPGEPASISCRSSQSLVYSDGNTYLNWFQQRPGQSPRRLIYKVSNRDSGVPDRFSGSGSGTDFTLKISRVEAEDVGVYYCMQGTHWQRLTFGGGTKVEIKR
4. M0097-D04 (Fab, V domains shown) VH: EVQLLESGGGLVQPGGSLRLSCAASGFTFSHYFMHWVRQAPGKGLEWVSYISSSGGLTGYADSVKGRFTISRDNSKNTLYLQMNSLRAEDTAVYYCARRGPVYYYDSSGSHSAFDIWGQGTMVTVS VL: AQSELTQPPSASGTPGQRVTISCSGSSSNIGSNYVYWYQQLPGMAPKLLIYRNNQRPSGVPDRFSGSKSGTSASLAISGLRSEDEADYYCAAWDDSMSGVVFGGGTKLTVLS
5. M0132-D08 (Fab, V domains shown) VH: EVQLLESGGGLVQPGGSLRLSCAASGFTFSHYLMYWVRQAPGKGLEWVSWIGPSGGHTMYADSVKGRFTISRDNSKNTLYLQMNSLRAEDTAVYYCARLQQGLDYWGQGTLVTVSS VL: DIQMTQSPSTLSASVGDRVTITCRASQSISNWLAWYQQKPGKAPKLLIYMASTLESGVPSRFSGSGSGTEFTLTISSLQPADFATYYCQQYNSYSVTFGGGTKVEIKR

1: 0.0035; 2: 0.00453; 3: 0.00106; 4: 0.00168; 5: 0.000923
